Record form. Attribute: pIC50. Fill in for each entry.
Target: GDP-bound KRAS protein (aa 1-169), containing both G12C and C118A amino acid substitutions (Homo sapiens (Human), UniProt P01116, C118A/G12C)
Sequence (P01116 other isoform, or with tags, fused parts or gaps G12C/C118A): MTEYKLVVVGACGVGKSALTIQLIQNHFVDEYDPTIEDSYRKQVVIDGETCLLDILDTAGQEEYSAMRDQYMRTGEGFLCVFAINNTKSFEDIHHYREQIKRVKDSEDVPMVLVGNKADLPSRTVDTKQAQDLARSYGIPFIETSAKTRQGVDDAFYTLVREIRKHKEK
Assay: Coupled Nucleotide Exchange Assay
Assay type: biochemical
Settings: read-out: Coupled Exchange IC50 (20 h); 20 h compound pre-incubation
One number for each entry, as −log10 of the molar value.

compound string | pIC50
C=CC(=O)N1CC(NC(=O)Cn2ccc3cc([N+](=O)[O-])ccc32)C1 | 4.03
C=CC(=O)N1CC(NC(=O)Cn2ccc3cc(Br)cc(C)c32)C1 | 5.75
C=CC(=O)N1CC(NC(=O)Cn2c3c(c4cc(Br)ccc42)CN(C(=O)OCc2ccccc2)CC3)C1 | 5.82
C=CC(=O)N1CC(NC(=O)Cn2cc(C)c3cc(Br)ccc32)C1 | 5.65

Give one value of pIC50 per listed compound.
1. C=CC(=O)N1CC(NC(=O)Cn2cc(Br)c3cc([N+](=O)[O-])ccc32)C1
2. C=CC(=O)N1CC(NC(=O)Cn2c(-c3ccccc3)cc3cc(Br)ccc32)C1
3. C=CC(=O)N1CC(NC(=O)Cn2c3ccccc3c3ccccc32)C1
4. C=CC(=O)N1CC(NC(=O)Cn2c(C(=O)NCCc3ccccc3)cc3cc(Br)ccc32)C1
5. C=CC(=O)N1CC(N(C)C(=O)Cn2cc(I)c3cc(I)ccc32)C1
6. C=CC(=O)N1CC(NC(=O)Cn2cc(-c3cocn3)c3ccc(-c4ccccc4Cl)cc32)C1
7. C=CC(=O)N1CC(NC(=O)Cn2c(C(=O)NCc3ccccc3)cc3cc(Br)ccc32)C1

1. 5.80
2. 5.55
3. 4.47
4. 5.79
5. 7.00
6. 5.54
7. 5.95

Give one value of pIC50 per listed compound.
1. C=CC(=O)N1CC(NC(=O)Cn2c3c(c4cc(Br)ccc42)CCNC3)C1
2. C=CC(=O)N1CC(NC(=O)Cn2cc(C3CC3)c3cc(Br)ccc32)C1
3. C=CC(=O)N1CC(NC(=O)Cn2cc(CC#N)c3cc(Br)ccc32)C1

5.24
5.77
5.35

* * *

Biological target: GDP-bound KRAS protein (aa 1-169), containing both G12C and C118A amino acid substitutions (Homo sapiens (Human), UniProt P01116, C118A/G12C)
Test: Coupled Nucleotide Exchange Assay
Format: biochemical
Conditions: read-out: Coupled Exchange IC50 (2 h); 2 h compound pre-incubation
Record form. Attribute: IC50. Fill in for each entry.
Give bare numbers, in µM.

compound | result units | IC50
C=CC(=O)N1CC(NC(=O)Cn2c(C)c(C(=O)N3CCc4c(C)cccc4C3)c3cc(Br)ccc32)C1 [Example 25] | µM | 0.54
C=CC(=O)N1CC(NC(=O)Cn2c(C)c(C(=O)N3CCc4c(C)cc(Br)cc4C3)c3cc(Br)ccc32)C1 [Example 51] | µM | 0.75
C=CC(=O)N1CC(NC(=O)Cn2c(C)c(-c3cncnc3C3CC3)c3cc(Cl)ccc32)C1 [Example 30] | µM | 2.32
C=CC(=O)N1CC(NC(=O)Cn2c(C)c(C(=O)N3CCc4c(cccc4OC)C3)c3cc(Cl)ccc32)C1 [Example 41] | µM | 0.37
C=CC(=O)N1CC(NC(=O)Cn2cc(C(=O)NCCc3ccc(Cl)cc3Cl)c3cc(Br)cc(C)c32)C1 [Example 162] | µM | 0.76
C=CC(=O)N1CC(NC(=O)Cn2cc(I)c3cc(Br)ccc32)C1 [Example 85] | µM | 3.84
C=CC(=O)N1CC(NC(=O)Cn2cc(-c3c(O)cccc3F)c3cc(Cl)ccc32)C1 [Example 144] | µM | 3.84
C=CC(=O)N1CC(NC(=O)Cn2c(C)c(C(=O)N3CCc4c(cccc4OC)C3)c3cc(C)cc(C)c32)C1 [Example 6] | µM | 0.34

Give one value of IC50 per listed compound.
1. C=CC(=O)N1CC(NC(=O)Cn2c(C)c(-c3ccccc3OC(C)C)c3cc(Cl)ccc32)C1 [Example 113]
2. C=CC(=O)N1CC(N(C)C(=O)Cn2c(C3CC3)c(C(=O)N3CCc4c(cccc4OC)C3)c3cc(Cl)cc(C)c32)C1 [Example 4-3]

1: 0.9; 2: 0.12

Give one value of IC50 per listed compound.
1. C=CC(=O)N1CC(NC(=O)Cn2cc(-c3c(C)ccc4[nH]ncc34)c3cc(Cl)ccc32)C1 [Example 142]
2. C=CC(=O)N1CC(NC(=O)Cn2c(C3CC3)c(C(=O)N3CCc4c(ccnc4OC)C3)c3cc(Cl)cc(C)c32)C1 [Example 1-4]
3. C=CC(=O)N1CC(NC(=O)Cn2cc(-c3ccccc3C)c3cc(Cl)ccc32)C1 [Example 78]
4. C=CC(=O)N1CC(N(C)C(=O)Cn2c(CC)c(C(=O)N3CCc4c(cccc4OC)C3)c3cc(Cl)cc(C)c32)C1 [Example 4-2]
5. C=CC(=O)N1CC(NC(=O)Cn2cc(I)c3cc([N+](=O)[O-])ccc32)C1 [Example 128]
6. C=CC(=O)N1CC(NC(=O)Cn2c(C3CC3)c(C(=O)N3CCOC4(CCC4)C3)c3cc(Cl)cc(C)c32)C1 [Example 1-6]
7. C=CC(=O)N1CC(NC(=O)Cn2c3c(c4cc(Br)ccc42)CCN(C(C)=O)C3)C1 [Example 252]

1: 3.71; 2: 0.08; 3: 5.49; 4: 0.15; 5: 7.24; 6: 0.72; 7: 19.4

* * *

Molecular target: GDP-bound KRAS protein (aa 1-169), containing both G12C and C118A amino acid substitutions (Homo sapiens (Human), UniProt P01116, C118A/G12C)
Experiment: Coupled Nucleotide Exchange Assay
Format: biochemical
Settings: read-out: Coupled Exchange IC50 (5 min); 5 min compound pre-incubation
measure: IC50 (µM)
Give bare numbers, in µM.

Solved cases below.
compound string | IC50 / µM
C=CC(=O)N1CC(N(C)C(=O)Cn2cc(I)c3cc(Br)ccc32)C1 | 36.6
C=CC(=O)N1CC(NC(=O)Cn2c(C)c(-c3ccccc3C(C)C)c3cc(Cl)ccc32)C1 | 4.11
C=CC(=O)N1CC(NC(=O)Cn2c(C)c(-c3ccccc3C)c3cc(Cl)ccc32)C1 | 12.4
C=CC(=O)N1CC(NC(=O)Cn2cc(Cl)c3cc(Br)ccc32)C1 | 56.2
C=CC(=O)N1CC(NC(=O)Cn2ccc3cc(Br)cc(C)c32)C1 | 193
C=CC(=O)N1CC(NC(=O)Cn2ccc3cc(Br)ccc32)C1 | 201

--- query ---
Name the reported IC50 value associated with the compound `C=CC(=O)N1CC(NC(=O)Cn2cc(I)c3cc(C(F)(F)F)ccc32)C1`
64.7

* * *

Test system: Phosphorylation of ERK1/2 in A549 cells
Assay: Phospho-ERK1/2 MSD Assay (A549)
Format: cell-based
Details: Homo sapiens, read-out: pERK IC50 (4 h), 4 h compound treatment
measure: IC50

Solved cases below.
compound string | tgt | IC50
C=CC(=O)N1CC(NC(=O)Cn2cc(CN3CCc4ccccc4C3)c3cc(Br)ccc32)C1 | Phosphorylation of ERK1/2 in A549 cells | 50.9 µM
C=CC(=O)N1CC(NC(=O)Cn2cc(Br)c3cc(Cl)cc(C)c32)C1 | Phosphorylation of ERK1/2 in A549 cells | > 100 µM
C=CC(=O)N1CC(NC(=O)Cn2c(C)c(-c3cccc4nc(C)ccc34)c3cc(Cl)ccc32)C1 | Phosphorylation of ERK1/2 in A549 cells | 56.8 µM
C=CC(=O)N1CC(NC(=O)Cn2c(C)c(-c3ccccc3-c3ccccc3)c3cc(Cl)ccc32)C1 | Phosphorylation of ERK1/2 in A549 cells | > 100 µM
C=CC(=O)N1CC(NC(=O)Cn2c(C)c(-c3cccc4ncccc34)c3cc(Cl)ccc32)C1 | Phosphorylation of ERK1/2 in A549 cells | > 100 µM

Give one value of IC50 per listed compound.
1. C=CC(=O)N1CC(NC(=O)Cn2cc(C3CC3)c3ccc(-c4ccccc4Cl)cc32)C1
2. C=CC(=O)N1CC(NC(=O)Cn2c3c(c4cc(Br)ccc42)CCN(C(=O)OC(C)(C)C)C3)C1
3. C=CC(=O)N1CC(NC(=O)Cn2c(C)c(-c3ccccc3N3CCOCC3)c3cc(Cl)ccc32)C1

74.2 µM
> 33.3 µM
7.68 µM

Give one value of IC50 per listed compound.
1. C=CC(=O)N1CC(NC(=O)Cn2cc(-c3c(O)cccc3F)c3cc(Cl)ccc32)C1
2. C=CC(=O)N1CC(NC(=O)Cn2c(C)c(-c3cnccc3C3CC3)c3cc(Cl)ccc32)C1
3. C=CC(=O)N1CC(NC(=O)Cn2cc(I)c3cc(Cl)ccc32)C1

["> 100 µM", "> 100 µM", "> 100 µM"]

Give one value of IC50 per listed compound.
1. C=CC(=O)N1CC(NC(=O)Cn2c(C)c(-c3cnccc3C(C)C)c3cc(Cl)ccc32)C1
2. C=CC(=O)N1CC(NC(=O)Cn2cc(I)c3ccc(-c4ccccc4Cl)cc32)C1
3. C=CC(=O)N1CC(NC(=O)Cn2cc(I)c3cc(Br)c(C)cc32)C1

1. > 100 µM
2. > 100 µM
3. > 100 µM

Give one value of IC50 per listed compound.
1. C=CC(=O)N1CC(NC(=O)Cn2ccc3cc(Cl)cc(Cl)c32)C1
2. C=CC(=O)N1CC(NC(=O)Cn2c(C(=O)NCc3ccccc3)cc3cc(Br)ccc32)C1

1: > 100 µM; 2: > 100 µM

Provenance of the data: patent US11053226B2
